Test system: HOP-92 NSCLC
Test: NCI tumour cell line growth inhibition, 48 h
Measured TGI, listed per entry.
measurement-kind: TGI (µM)

INSERT INTO results (smiles_str, measurement_kind, measured) VALUES
  ('CN(C)CCNC(=O)c1cccc2nc3c(C(=O)NCCN(C)C)cccc3nc12', 'TGI', 7.83),
  ('COC1=CC(=O)C=C(OC)C1=O', 'TGI', 7.89);

* * *

Test system: HT29 colon
Experiment: NCI tumour cell line growth inhibition, 48 h
Overview of reported TGI across a group of compounds:
measurement-kind: TGI (µM)

INSERT INTO measurements (compound, assay_target, units_symbol, value_comparator, measured) VALUES
  ('C[C@]12CC[C@H]3[C@@H](CC4SC(N)=NC45C/C(=N/NC(N)=O)CC[C@]35C)[C@@H]1CCC2=O (stereo partly drawn)', 'HT29 colon', 'µM', '=', 3.73),
  ('COc1ccc(NC(=O)c2sc3nc(C)c(C(=O)/C=C/c4cccc(OC)c4)cc3c2N)cc1', 'HT29 colon', 'µM', '=', 2.35),
  ('Cc1ccc(S(=O)(=O)c2ccc(C)cc2[N+](=O)[O-])cc1', 'HT29 colon', 'µM', '>', 100),
  ('COC(=O)C(=O)C(C(=O)C(=O)Nc1ccccc1OC)c1nc2ccc([N+](=O)[O-])cc2[nH]c1=O (stereo not drawn)', 'HT29 colon', 'µM', '>', 100),
  ('c1ccc(Nc2nn3c(CCCCCCCCc4nnc5sc(Nc6ccccc6)nn45)nnc3s2)cc1', 'HT29 colon', 'µM', '=', 77.5),
  ('O[C@@H]1CCC[C@@H]2NC[C@@H](c3ccc4c(c3)OCO4)[C@H]12', 'HT29 colon', 'µM', '>', 100),
  ('Nc1nc2cc(CC[C@H]3C[C@@H](n4ccc5c(N)ncnc54)[C@H](O)[C@@H]3O)ccc2cc1Br', 'HT29 colon', 'µM', '=', 24.3),
  ('N/N=C(\c1nc2ccc(Cl)cc2[nH]c1=O)C(O)c1ccc(Cl)c(Cl)c1 (stereo not drawn)', 'HT29 colon', 'µM', '>', 100);

* * *

System: A549 NSCLC
Assay: NCI tumour cell line growth inhibition, 48 h
*1 amine or outer side, *2 acyl side, *3 side chain or, on linkers, in order; H or OH if unused. Where a SMILES comes first, the peptide text is derived from it. Bridges are numbered along the chain shown (N, C = ends). Roman numbers before positions name the chains, in order. [ ]: non-standard residue; d: D form. Actinocin(9to1) = Cc1c2oc3c(C)ccc(C(=O)[*:1])c3nc-2c(C(=O)[*:2])c(N)c1=O; Hyp = O=C(O)[CH]1C[CH](O)CN1; NMeV = CN[CH](C(=O)O)C(C)C; Sar = CNCC(=O)O
measurement-kind: TGI

INSERT INTO measurements (molecule, measured) VALUES
  ('Cc1cc(C)c(C(=O)O)c(SSc2cc(C)cc(C)c2C(=O)O)c1', '> 100 µM'),
  ('CNC(=O)SCC(NC(=O)CCC(N)C(=O)O)C(=O)NCC(=O)O (stereo not given)', '> 100 µM'),
  ('CCSc1nc(=S)n(-c2ccccc2)c(C)c1C(C)=O', '> 100 µM'),
  ('COC(=O)c1cn(CC(O)CCl)nn1 (stereo not given)', '> 100 µM'),
  ('Cc1cc(S(=O)(=O)Nc2nncn2-c2ccc(Cl)cc2)c(S)cc1Cl', '> 10 µM'),
  ('CC1(C)C2CCC1C(=O)[C@@]1(C=CC(=O)CC1)C2 (stereo not given in full)', '> 100 µM'),
  ('C=CCN1/C(=C2\SC(=S)N(c3ccc(C)cc3)C2=O)Sc2c1ncn(C)c2=O', '> 100 µM'),
  ('CCCCc1ccc(Nc2nc(Cl)c3ccn(C4CC(Oc5ccc(C)cc5)C(COc5ccc(C)cc5)O4)c3n2)cc1 (stereo not given)', '> 46.4 µM'),
  ('N#CC(C#N)=Cc1ccc(CP(=O)(O)O)cc1', '> 100 µM'),
  ('Cc1c2oc3c(C)ccc(C(=O)NC4C(=O)NC(C(C)C)C(=O)N5CC(O)CC5C(=O)N(C)CC(=O)N(C)C(C(C)C)C(=O)OC4C)c3nc-2c(C(=O)NC2C(=O)NC(C(C)C)C(=O)N3CC(O)CC3C(=O)N(C)CC(=O)N(C)C(C(C)C)C(=O)OC2C)c(N)c1=O (stereo not given) (I: TV[Hyp][Sar][NMeV] / II: TV[Hyp][Sar][NMeV]; ester I:1-I:C, II:1-II:C; linker I:N-II:N via Actinocin(9to1); configuration not given here)', '> 1 µM');

* * *

Reported TGI by item:
Test system: SNB-19 CNS
Experiment: NCI tumour cell line growth inhibition, 48 h
measurement-kind: TGI

INSERT INTO measurements (molecule, measured) VALUES
  ('Cc1cc(S(=O)(=O)Nc2nncn2-c2ccc(Cl)cc2)c(S)cc1Cl', '> 10 µM'),
  ('N#CC(C#N)=Cc1ccc(CP(=O)(O)O)cc1', '> 100 µM'),
  ('NC(=O)CC(N)C(=O)NC(Cc1ccccc1)C(=O)NC(Cc1ccccc1)NC(=O)C(Cc1c[nH]c2ccccc12)C(=O)O (centres undefined)', '> 100 µM'),
  ('O=C(Nc1ccccc1Cl)c1ccc([N+](=O)[O-])cc1', '> 100 µM'),
  ('CC1=NOC(=O)/C1=C/c1ccc([N+](=O)[O-])cc1', '> 100 µM'),
  ('Nc1ccc(COC(O)CN2CCCCC2)cc1[N+](=O)[O-] (centres undefined)', '> 100 µM'),
  ('COC(=O)C1=C(O)CCCC(C2CCCCC(=O)C2C(=O)OC)=C1 (centres undefined)', '> 100 µM'),
  ('COC(=O)c1c(C)cccc1C1CN=NC12Cc1cc(C)cc(C)c1C2=O (centres undefined)', '> 100 µM'),
  ('C=CCC1(C(=O)OC(C)(C)C)C(OC)=C(C(=O)OC(C)(C)C)C2C1C(C(=O)OC(C)(C)C)=C(OC)C2(CC=C)C(=O)OC(C)(C)C (centres undefined)', '> 100 µM'),
  ('COC(=O)[C@]1(c2ccc(N(C)C)cc2OC)C[C@@H]2CCCN(CCc3c1[nH]c1ccccc31)C2', '> 100 µM'),
  ('O=C(c1cccs1)N1CCCN(C(=O)c2cccs2)C1=S', '> 100 µM'),
  ('CC(=O)O[C@H]1C(=O)[C@@]2(C)[C@H]([C@H](OC(=O)c3ccccc3)[C@]3(O)C[C@H](OC(=O)[C@H](OC(=O)OC[C@H]4COC(C)(C)O4)[C@@H](NC(=O)c4ccccc4)c4ccccc4)C(C)=C1C3(C)C)[C@]1(OC(C)=O)CO[C@@H]1C[C@@H]2O', '> 33.3 µM'),
  ('COc1ccc2oc(-c3ccc(OC)c(OC)c3OC)cc(=O)c2c1', '> 100 µM'),
  ('COC(=O)C(=O)C(C(=O)C(=O)Nc1ccccc1OC)c1nc2ccc([N+](=O)[O-])cc2[nH]c1=O (centres undefined)', '> 100 µM'),
  ('N/N=C(\c1nc2ccc(Cl)cc2[nH]c1=O)C(O)c1ccc(Cl)c(Cl)c1 (centres undefined)', '> 100 µM'),
  ('Cc1c(Cl)cccc1N=NC(=O)NNc1cccc(Cl)c1C', '41.9 µM'),
  ('Cc1ccc(S(=O)(=O)C2=c3nc4ccccc4cc3=C3C(=O)c4ccccc4C(=O)C32)cc1 (centres undefined)', '> 100 µM'),
  ('O=C(OC1CN2CCC1CC2)N(c1ccccc1)c1ccccc1 (centres undefined)', '> 100 µM'),
  ('O=C(c1ccco1)c1c(C(F)(F)F)n([O-])c2cc(C(F)(F)F)ccc2[n+]1=O', '2.99 µM'),
  ('COc1cc2c(cc1Oc1c(Oc3c(O)c(OC)cc4c3C(CC(C)C)N(C)CC4)c(OC)cc3c1C(CC(C)C)N(C)CC3)C(CC(C)C)N(C)CC2 (centres undefined)', '2.18 µM'),
  ('ClCc1ccccc1Cn1cnc2c(Cl)ncnc21', '> 100 µM'),
  ('O=C(c1cccnc1)N1N=C(c2ccccc2)CC1(O)c1cc(F)c(Cl)cc1Cl (centres undefined)', '> 100 µM'),
  ('NCCCNOCCCN', '> 100 µM'),
  ('CC(C)C(=O)c1c(C(F)(F)F)n([O-])c2cc(F)c(F)cc2[n+]1=O', '3.08 µM'),
  ('Cc1ccc2c(c1)C(=O)c1c-2c(OCCCN(C)C)nc2ccccc12', '15.1 µM'),
  ('Cc1c(C)c(C)c(-n2c(=O)n(C)c(=O)n2-c2cc(C(C)(C)C)cc(C(C)(C)C)c2O)c(C)c1C', '20.9 µM'),
  ('CCOc1ccc(C(C)c2cc3c(cc2OC)OCO3)cc1 (centres undefined)', '> 100 µM'),
  ('O=C(/C=C1\C(=O)N(Cc2ccccc2)c2ccccc21)c1ccc(OCCN2CCCCC2)cc1', '5.99 µM'),
  ('CC(C)(C)NC(=O)/C(=C\Sc1ccccc1)c1ccccc1', '> 100 µM');
